Target: T1, TgSlyDcys-Her3
T1 chain: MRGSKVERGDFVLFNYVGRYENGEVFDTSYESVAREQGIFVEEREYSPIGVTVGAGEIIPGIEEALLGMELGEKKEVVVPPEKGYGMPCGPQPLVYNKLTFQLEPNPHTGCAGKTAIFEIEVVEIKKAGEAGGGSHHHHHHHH
Assay: ELISA, antigen coated, hybridoma supernatant
measure: OD 405 nm (OD)
The reply should be a number in OD, with the unit left off.

Some solved cases for reference:
Identify measured OD 405 nm associated with anti-HER3 antibody M-17-07 (antibody, V domains shown, mouse hybridoma clone) VH: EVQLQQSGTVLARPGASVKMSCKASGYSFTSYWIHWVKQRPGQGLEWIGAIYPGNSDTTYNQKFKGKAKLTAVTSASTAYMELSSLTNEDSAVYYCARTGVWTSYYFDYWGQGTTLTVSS VL: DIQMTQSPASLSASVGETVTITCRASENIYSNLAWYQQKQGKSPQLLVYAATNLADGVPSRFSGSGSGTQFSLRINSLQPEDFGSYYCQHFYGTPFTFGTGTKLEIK
1.62

# return recorded OD 405 nm for input anti-HER3 antibody M-43-01 (antibody, V domains shown, mouse hybridoma clone) VH: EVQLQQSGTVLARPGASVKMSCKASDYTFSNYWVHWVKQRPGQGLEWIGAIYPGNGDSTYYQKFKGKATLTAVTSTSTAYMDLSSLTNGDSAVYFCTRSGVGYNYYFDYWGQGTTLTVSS VL: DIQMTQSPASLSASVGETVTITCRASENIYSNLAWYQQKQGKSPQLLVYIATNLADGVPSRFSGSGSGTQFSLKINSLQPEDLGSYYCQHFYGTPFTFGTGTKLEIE
3.15

More entries:
Give me measured OD 405 nm, please, for this binder: anti-HER3 antibody M-08-11 (antibody, V domains shown, mouse monoclonal antibody from hybridoma, tested as hybridoma supernatant or as antibody; also called M-011) VH: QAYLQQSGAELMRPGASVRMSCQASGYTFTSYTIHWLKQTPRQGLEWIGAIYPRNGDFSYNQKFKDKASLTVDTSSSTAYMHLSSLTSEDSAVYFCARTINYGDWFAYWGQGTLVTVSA VL: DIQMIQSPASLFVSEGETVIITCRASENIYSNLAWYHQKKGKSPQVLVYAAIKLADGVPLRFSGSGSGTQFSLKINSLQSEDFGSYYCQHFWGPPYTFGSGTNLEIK
3.26
